Items are presented alongside their recorded inhibition.
# system tested: RAC-alpha serine/threonine-protein kinase (Homo sapiens) (UniProt P31749)
# Sequence (P31749 whole entry, the tested form may be a part): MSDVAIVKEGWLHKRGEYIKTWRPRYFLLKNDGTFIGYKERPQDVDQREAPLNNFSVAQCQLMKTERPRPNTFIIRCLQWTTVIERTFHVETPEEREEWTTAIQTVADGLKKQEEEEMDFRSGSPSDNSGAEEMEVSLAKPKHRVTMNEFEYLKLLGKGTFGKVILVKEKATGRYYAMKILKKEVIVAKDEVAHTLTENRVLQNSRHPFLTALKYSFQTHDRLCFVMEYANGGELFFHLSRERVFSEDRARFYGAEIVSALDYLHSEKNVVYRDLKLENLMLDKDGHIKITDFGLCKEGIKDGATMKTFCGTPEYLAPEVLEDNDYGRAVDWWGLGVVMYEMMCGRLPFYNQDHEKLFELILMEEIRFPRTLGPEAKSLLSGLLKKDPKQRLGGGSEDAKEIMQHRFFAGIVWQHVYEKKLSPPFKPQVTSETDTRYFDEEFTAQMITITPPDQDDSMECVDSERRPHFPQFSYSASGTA
# experiment summary: Inhibition of recombinant human N-terminal His-tagged full length human AKT1 (1 to 480 residues) expressed in baculovirus infected Sf9 insect cells at 1 uM using FAM-labeled peptide as substrate after 10 mins by mobility shift assay relative to control
Report only the number, with the unit % understood.

Solved cases below.
* O=C(O)CCCC(=O)Nc1cc(Nc2cccc(Cl)c2)ncn1 | 0
* COc1cccc(Nc2cc(Nc3cc(OC)ccc3OC)ncn2)c1 | -2.1
* COc1ccc(Nc2cc(NC(=O)c3ccccc3)ncn2)cc1 | -3.4
* COc1cccc(Nc2cc(NC(=O)CCCC(=O)O)ncn2)c1 | 6.8
* O=C(O)CCCC(=O)Nc1cc(N2CCOCC2)ncn1 | -3

// switching to the query compound
Value of measured inhibition for the entry CCOC(=O)c1ccc(Nc2cc(NC(=O)CCCC(=O)O)ncn2)cc1 : 4.7

* * *

# System: BEAS-2B
# experiment summary: Cytotoxicity against human BEAS2B cells after 72 hrs by MTT assay
# Format: cell-based
Items are presented alongside their recorded IC50.
Report only the number, with the unit µM understood.

Solved cases below.
- COc1cccc(Nc2cc(Nc3cccc(Cl)c3)ncn2)c1: 17.6
- O=C(O)CCC(=O)Nc1cc(Nc2ccc(Cl)cc2)ncn1: 19
- COc1ccc(OC)c(Nc2cc(Nc3ccc(F)cc3)ncn2)c1: 18

// switching to the query molecule
Value of measured IC50 for the entry O=C(Nc1cc(N2CCOCC2)ncn1)c1ccc(F)cc1 : 20.9

* * *

# experiment summary: Cmax in Sprague-Dawley rat at 30 mg/kg, po by UPLC-MS/MS analysis
# Format: ADME, organism-based
# Design: dose 30 mg/kg, route oral
# condition info: in vivo
readout type: Cmax (ng/mL)
Report only the number, with the unit ng/mL understood.

Value of measured Cmax for the entry COc1cccc(Nc2cc(Nc3cc(OC)ccc3OC)ncn2)c1 : 1060

* * *

Items are presented alongside their recorded inhibition.
# system tested: Receptor tyrosine-protein kinase erbB-2 (Homo sapiens)
# experiment summary: Inhibition of N-terminal His-tagged human HER2 cytoplasmic domain (676 to 1255 residues) expressed in baculovirus expression system at 1 uM using FAM-labeled peptide as substrate after 10 mins by mobility shift assay relative to control
Report only the number, with the unit % understood.

Solved cases below.
* O=C(O)CCCC(=O)Nc1cc(N2CCOCC2)ncn1 | -1.5
* O=C(O)CCCC(=O)Nc1cc(Nc2cccc(Cl)c2)ncn1 | 57.3
* COc1cccc(Nc2cc(NC(=O)CCCC(=O)O)ncn2)c1 | -1.9
* CCOC(=O)c1ccc(Nc2cc(NC(=O)CCCC(=O)O)ncn2)cc1 | 4.9

Value of measured inhibition for the entry COc1ccc(Nc2cc(NC(=O)c3ccccc3)ncn2)cc1 : 55.8

Value of measured inhibition for the entry COc1cccc(Nc2cc(Nc3cc(OC)ccc3OC)ncn2)c1 : -4.2

* * *

# system tested: Vascular endothelial growth factor receptor 2 (Homo sapiens) (UniProt P35968)
# Sequence (P35968 whole entry, the tested form may be a part): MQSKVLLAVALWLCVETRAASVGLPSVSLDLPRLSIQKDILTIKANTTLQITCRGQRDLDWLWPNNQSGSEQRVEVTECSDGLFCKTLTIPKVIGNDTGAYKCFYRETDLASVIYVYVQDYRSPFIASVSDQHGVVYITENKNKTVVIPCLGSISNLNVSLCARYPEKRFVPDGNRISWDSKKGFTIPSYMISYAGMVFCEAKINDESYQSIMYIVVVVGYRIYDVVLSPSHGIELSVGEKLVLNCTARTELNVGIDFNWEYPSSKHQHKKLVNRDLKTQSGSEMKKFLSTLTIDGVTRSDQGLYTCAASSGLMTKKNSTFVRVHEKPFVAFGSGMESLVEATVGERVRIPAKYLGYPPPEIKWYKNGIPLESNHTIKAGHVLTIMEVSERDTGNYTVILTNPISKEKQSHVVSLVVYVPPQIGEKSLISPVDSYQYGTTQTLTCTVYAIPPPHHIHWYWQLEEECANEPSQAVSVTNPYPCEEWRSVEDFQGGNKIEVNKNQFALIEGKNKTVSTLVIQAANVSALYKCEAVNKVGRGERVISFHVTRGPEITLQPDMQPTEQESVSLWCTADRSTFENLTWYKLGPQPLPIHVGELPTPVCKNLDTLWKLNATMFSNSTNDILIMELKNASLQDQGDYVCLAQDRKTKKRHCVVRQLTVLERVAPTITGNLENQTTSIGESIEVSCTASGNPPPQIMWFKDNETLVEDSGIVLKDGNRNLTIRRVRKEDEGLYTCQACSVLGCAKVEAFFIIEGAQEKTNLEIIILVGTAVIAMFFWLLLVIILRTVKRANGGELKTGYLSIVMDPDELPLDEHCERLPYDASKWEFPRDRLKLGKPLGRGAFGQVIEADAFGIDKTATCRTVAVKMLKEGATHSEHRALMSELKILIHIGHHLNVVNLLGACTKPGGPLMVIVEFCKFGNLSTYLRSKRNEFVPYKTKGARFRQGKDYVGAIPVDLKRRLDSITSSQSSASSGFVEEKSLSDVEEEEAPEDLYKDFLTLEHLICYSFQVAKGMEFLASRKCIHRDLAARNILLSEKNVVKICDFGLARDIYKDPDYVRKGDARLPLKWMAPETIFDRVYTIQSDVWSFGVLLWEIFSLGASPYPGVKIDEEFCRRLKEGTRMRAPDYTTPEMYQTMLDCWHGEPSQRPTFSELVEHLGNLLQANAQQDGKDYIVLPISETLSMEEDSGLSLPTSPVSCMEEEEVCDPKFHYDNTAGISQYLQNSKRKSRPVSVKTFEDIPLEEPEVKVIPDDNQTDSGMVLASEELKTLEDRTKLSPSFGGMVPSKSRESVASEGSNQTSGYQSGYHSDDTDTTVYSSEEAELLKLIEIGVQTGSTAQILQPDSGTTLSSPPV
# experiment summary: Inhibition of N-terminal GST-tagged human KDR cytoplasmic domain (790 to 1356 residues) expressed in baculovirus expression system at […] using FAM-labeled peptide as substrate after 10 mins by mobility shift assay relative to control
readout type: inhibition (%)
Report only the number, with the unit % understood.

Solved cases below.
* COc1cccc(Nc2cc(NC(=O)c3ccc(F)cc3)ncn2)c1 | 20.8
* O=C(/C=C/c1ccc(F)cc1Br)Nc1cc(Nc2ccc(Cl)cc2Cl)ncn1 | 15.2
* COc1ccc(Nc2cc(NC(=O)c3ccccc3)ncn2)c([N+](=O)[O-])c1 | 8.9

Value of measured inhibition for the entry Clc1ccc(Nc2cc(Nc3cccc(Cl)c3)ncn2)cc1 : 7.3

Value of measured inhibition for the entry Cc1ccc(Nc2cc(NC(=O)c3ccc(F)cc3)ncn2)cc1 : 10.9

Value of measured inhibition for the entry O=C(/C=C/c1ccc(F)cc1)Nc1cc(Nc2ccc(Cl)cc2Cl)ncn1 : 2.5

Value of measured inhibition for the entry O=C(/C=C/c1ccccc1)Nc1cc(Nc2ccc(N3CCOCC3)cc2)ncn1 : -5

Value of measured inhibition for the entry O=C(O)CCCC(=O)Nc1cc(Nc2cccc(Br)c2)ncn1 : 6.5

* * *

Items are presented alongside their recorded inhibition.
# system tested: Mitogen-activated protein kinase kinase kinase kinase 2 (Homo sapiens)
# Sequence (whole entry): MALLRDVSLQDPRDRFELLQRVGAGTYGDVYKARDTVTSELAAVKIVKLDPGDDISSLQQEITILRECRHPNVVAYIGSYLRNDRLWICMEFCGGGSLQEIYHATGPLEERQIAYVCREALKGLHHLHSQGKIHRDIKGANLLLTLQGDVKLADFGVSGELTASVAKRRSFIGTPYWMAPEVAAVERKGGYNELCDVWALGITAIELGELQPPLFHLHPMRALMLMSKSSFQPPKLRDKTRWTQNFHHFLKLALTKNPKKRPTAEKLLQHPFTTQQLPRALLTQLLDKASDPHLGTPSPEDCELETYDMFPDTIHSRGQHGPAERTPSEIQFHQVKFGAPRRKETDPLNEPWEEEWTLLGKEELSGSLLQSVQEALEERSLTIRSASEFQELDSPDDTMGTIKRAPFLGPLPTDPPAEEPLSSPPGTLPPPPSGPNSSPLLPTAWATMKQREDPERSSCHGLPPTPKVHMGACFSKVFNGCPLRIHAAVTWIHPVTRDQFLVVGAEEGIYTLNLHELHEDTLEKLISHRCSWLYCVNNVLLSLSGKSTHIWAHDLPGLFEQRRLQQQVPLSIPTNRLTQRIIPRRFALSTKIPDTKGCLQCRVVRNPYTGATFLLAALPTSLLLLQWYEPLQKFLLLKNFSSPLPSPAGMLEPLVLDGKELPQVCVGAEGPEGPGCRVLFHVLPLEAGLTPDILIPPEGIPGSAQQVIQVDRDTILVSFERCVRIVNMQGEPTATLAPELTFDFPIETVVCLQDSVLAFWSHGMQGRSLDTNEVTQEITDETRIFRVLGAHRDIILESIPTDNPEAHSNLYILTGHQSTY
# experiment summary: Inhibition of human N-terminal GST-tagged full length MAP4K2 (1 to 820 residues) expressed in baculovirus expression system at 1 uM using FAM-labeled peptide as substrate after 10 mins by mobility shift assay relative to control
Report only the number, with the unit % understood.

Solved cases below.
• O=C(O)CCCC(=O)Nc1cc(Nc2cccc(Cl)c2)ncn1 = 9.2
• CCOC(=O)c1ccc(Nc2cc(NC(=O)CCCC(=O)O)ncn2)cc1 = 5.5
• COc1cccc(Nc2cc(NC(=O)CCCC(=O)O)ncn2)c1 = 10.5
• COc1cccc(Nc2cc(Nc3cc(OC)ccc3OC)ncn2)c1 = 5.4
• O=C(O)CCCC(=O)Nc1cc(N2CCOCC2)ncn1 = 3.3

// switching to the query compound
Result for COc1ccc(Nc2cc(NC(=O)c3ccccc3)ncn2)cc1 , tested on Mitogen-activated protein kinase kinase kinase kinase 2 (Homo sapiens), inhibition: -3.2

* * *

# system tested: UniProt:P29597
# Sequence (P29597 whole entry, the tested form may be a part): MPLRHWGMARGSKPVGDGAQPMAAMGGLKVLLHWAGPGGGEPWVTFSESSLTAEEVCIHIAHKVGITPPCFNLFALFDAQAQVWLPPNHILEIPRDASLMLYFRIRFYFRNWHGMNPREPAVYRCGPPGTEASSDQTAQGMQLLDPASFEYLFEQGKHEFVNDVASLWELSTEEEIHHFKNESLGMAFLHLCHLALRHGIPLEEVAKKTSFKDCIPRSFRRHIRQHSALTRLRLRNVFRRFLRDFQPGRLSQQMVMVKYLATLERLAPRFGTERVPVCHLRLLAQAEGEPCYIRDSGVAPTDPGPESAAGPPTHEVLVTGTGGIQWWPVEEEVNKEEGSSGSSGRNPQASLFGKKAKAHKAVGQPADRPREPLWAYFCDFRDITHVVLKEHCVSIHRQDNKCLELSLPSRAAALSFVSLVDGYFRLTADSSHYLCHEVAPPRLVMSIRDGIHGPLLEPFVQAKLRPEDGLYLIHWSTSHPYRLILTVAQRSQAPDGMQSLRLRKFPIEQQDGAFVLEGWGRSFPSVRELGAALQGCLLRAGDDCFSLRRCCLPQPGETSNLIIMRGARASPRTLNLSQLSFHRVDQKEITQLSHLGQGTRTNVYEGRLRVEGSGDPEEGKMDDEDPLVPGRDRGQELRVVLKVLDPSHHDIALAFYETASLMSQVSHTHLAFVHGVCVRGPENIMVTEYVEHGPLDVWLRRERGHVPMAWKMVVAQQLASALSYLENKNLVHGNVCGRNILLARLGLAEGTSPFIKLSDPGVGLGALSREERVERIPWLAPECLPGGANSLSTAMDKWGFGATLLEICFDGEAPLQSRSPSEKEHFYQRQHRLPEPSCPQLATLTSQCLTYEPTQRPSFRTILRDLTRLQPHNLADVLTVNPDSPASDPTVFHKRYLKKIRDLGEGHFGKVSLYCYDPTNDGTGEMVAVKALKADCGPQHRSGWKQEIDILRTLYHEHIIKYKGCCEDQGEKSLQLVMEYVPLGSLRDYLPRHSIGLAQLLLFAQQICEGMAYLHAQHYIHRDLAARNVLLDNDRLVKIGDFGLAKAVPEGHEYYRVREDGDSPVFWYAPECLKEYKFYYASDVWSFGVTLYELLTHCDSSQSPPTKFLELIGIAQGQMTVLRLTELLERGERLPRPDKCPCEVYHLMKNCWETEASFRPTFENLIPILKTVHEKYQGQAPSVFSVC
# experiment summary: Inhibition of human N-terminal GST-tagged TYK2 catalytic domain (871 to 1187 residues) expressed in baculovirus expression system at 1 uM using FAM-labeled peptide as substrate after 10 mins by mobility shift assay relative to control
Items are presented alongside their recorded inhibition.
Report only the number, with the unit % understood.

Solved cases below.
- COc1cccc(Nc2cc(Nc3cc(OC)ccc3OC)ncn2)c1: 0
- COc1ccc(Nc2cc(NC(=O)c3ccccc3)ncn2)cc1: -7.9
- COc1cccc(Nc2cc(NC(=O)CCCC(=O)O)ncn2)c1: -4.4

Value of measured inhibition for the entry CCOC(=O)c1ccc(Nc2cc(NC(=O)CCCC(=O)O)ncn2)cc1 : -1.4

Value of measured inhibition for the entry O=C(O)CCCC(=O)Nc1cc(N2CCOCC2)ncn1 : 2.5

Value of measured inhibition for the entry O=C(O)CCCC(=O)Nc1cc(Nc2cccc(Cl)c2)ncn1 : -0.6

* * *

# system tested: Hepatocyte growth factor receptor (Homo sapiens) (UniProt P08581)
# Sequence (P08581 whole entry, the tested form may be a part): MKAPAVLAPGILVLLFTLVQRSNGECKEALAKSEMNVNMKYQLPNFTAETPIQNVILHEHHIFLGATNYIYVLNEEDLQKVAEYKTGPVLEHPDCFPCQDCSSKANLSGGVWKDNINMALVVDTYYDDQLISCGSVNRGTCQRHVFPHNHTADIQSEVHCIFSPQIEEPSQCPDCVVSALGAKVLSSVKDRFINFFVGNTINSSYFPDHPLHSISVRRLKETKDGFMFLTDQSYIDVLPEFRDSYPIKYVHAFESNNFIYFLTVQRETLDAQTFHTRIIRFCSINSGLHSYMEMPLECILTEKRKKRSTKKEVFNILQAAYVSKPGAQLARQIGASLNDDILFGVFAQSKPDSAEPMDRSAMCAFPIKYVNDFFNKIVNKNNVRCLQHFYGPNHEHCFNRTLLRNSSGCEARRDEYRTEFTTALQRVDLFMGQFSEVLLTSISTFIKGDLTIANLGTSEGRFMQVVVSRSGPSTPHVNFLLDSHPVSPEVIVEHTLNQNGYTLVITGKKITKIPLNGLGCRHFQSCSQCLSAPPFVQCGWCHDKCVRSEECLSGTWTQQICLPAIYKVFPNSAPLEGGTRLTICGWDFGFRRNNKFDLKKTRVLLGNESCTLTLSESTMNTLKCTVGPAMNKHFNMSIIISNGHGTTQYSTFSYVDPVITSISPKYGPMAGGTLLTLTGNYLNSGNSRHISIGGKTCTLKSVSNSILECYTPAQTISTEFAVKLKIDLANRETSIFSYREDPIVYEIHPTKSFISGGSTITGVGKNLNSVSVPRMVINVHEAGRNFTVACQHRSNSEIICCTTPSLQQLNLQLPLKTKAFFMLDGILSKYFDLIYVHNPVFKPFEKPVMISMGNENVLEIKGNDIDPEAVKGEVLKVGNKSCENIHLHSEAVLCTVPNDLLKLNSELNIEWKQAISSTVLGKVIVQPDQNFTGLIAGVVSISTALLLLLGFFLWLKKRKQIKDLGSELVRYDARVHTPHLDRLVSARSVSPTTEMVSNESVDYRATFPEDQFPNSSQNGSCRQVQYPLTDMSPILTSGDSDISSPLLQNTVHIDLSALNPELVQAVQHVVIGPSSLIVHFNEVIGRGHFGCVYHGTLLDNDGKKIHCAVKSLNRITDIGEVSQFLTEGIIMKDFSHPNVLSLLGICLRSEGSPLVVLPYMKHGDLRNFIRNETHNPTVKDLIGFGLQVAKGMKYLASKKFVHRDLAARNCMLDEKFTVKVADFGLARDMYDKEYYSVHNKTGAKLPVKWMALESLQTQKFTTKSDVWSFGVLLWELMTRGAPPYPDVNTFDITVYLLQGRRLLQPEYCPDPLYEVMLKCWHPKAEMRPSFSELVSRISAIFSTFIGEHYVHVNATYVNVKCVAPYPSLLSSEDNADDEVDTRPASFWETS
# experiment summary: Inhibition of N-terminal GST-tagged human MET cytoplasmic domain (956 to 1390 residues) expressed in baculovirus expression system at 1 uM using FAM-labeled peptide as substrate after 10 mins by mobility shift assay relative to control
readout type: inhibition (%)
Report only the number, with the unit % understood.

• CCOC(=O)c1ccc(Nc2cc(NC(=O)CCCC(=O)O)ncn2)cc1 = 4.4
• O=C(O)CCCC(=O)Nc1cc(Nc2cccc(Cl)c2)ncn1 = 4
• O=C(O)CCCC(=O)Nc1cc(N2CCOCC2)ncn1 = 9.2
• COc1ccc(Nc2cc(NC(=O)c3ccccc3)ncn2)cc1 = 3.3

Value of measured inhibition for the entry COc1cccc(Nc2cc(NC(=O)CCCC(=O)O)ncn2)c1 : 12

Value of measured inhibition for the entry COc1cccc(Nc2cc(Nc3cc(OC)ccc3OC)ncn2)c1 : 7.2

* * *

# experiment summary: Half life in Sprague-Dawley rat at 30 mg/kg, po by UPLC-MS/MS analysis
# Assay type: ADME, organism-based
# condition info: in vivo
readout type: half-life (h)
Report only the number, with the unit h understood.

Value of measured half-life for the entry COc1cccc(Nc2cc(Nc3cc(OC)ccc3OC)ncn2)c1 : 4.17
